# SUBJECT_OF_TEST: T1, Insulin receptor prepared according to Bass et al., 1996: soluble human insulin receptor-immunoglobulin heavy … (human, UniProt P06213 28-956)
# T1 construct: extracellular domain; Eu3+-labelled in TR-FRET; also called IR; sIR-Fc; not shown: immunoglobulin heavy chain constant domains that replace the transmembrane and i
# PROCEDURE_DETAILS: phage ELISA, vs IGF-1R
IR/IGF-1R Comparison values, listed per item
# number only, unit ratio dropped from output

Query string: Which measured IR/IGF-1R Comparison value corresponds to FYDAIDQLVRGSARAGGTRD [R20α-3-2082-IR] ?
Result string: 0.1

Query string: Which measured IR/IGF-1R Comparison value corresponds to FRTLAAQHDSFYDWFDRQVSGAAGER [H2CA-3-C11-IGFR] ?
Result string: 0.5

Query string: Which measured IR/IGF-1R Comparison value corresponds to QPAPDGFYSALMKLIGRGGVS [20E2B-3-C8-IGFR] ?
Result string: 0.1

Query string: Which measured IR/IGF-1R Comparison value corresponds to SAAQLFFQESFYDWFLRQVAESSQPN [H2CA-4-F11-IGFR] ?
Result string: 0.1
